Experiment: activity coefficient (dimensionless); of the first substance listed, at infinite dilution; xn = mol fraction of the nth substance listed
Conditions: 303 K; 101.33 kPa; Liquid; Chromatography; x1 = 0
Measured activity coefficient accompanies every entry in the list below.
Enter a number only.

# count of solved cases: 4
>  <compound>
C#CCCCC [1-hexyne] + C[n+]1ccn(CCO)c1.O=S(=O)([O-])C(F)(F)C(F)(F)C(F)(F)C(F)(F)F

>  <quantity.name>
activity coefficient

>  <experimental.result>
10.4

$$$$
>  <compound>
C#CCCC [1-pentyne] + C[n+]1ccn(CCO)c1.O=S(=O)([O-])C(F)(F)C(F)(F)C(F)(F)C(F)(F)F

>  <quantity.name>
activity coefficient

>  <experimental.result>
5.99

$$$$
>  <compound>
CCc1ccccc1 [ethylbenzene] + C[n+]1ccn(CCO)c1.O=S(=O)([O-])C(F)(F)C(F)(F)C(F)(F)C(F)(F)F

>  <quantity.name>
activity coefficient

>  <experimental.result>
12.1

$$$$
>  <compound>
Cc1ccccc1 [toluene] + C[n+]1ccn(CCO)c1.O=S(=O)([O-])C(F)(F)C(F)(F)C(F)(F)C(F)(F)F

>  <quantity.name>
activity coefficient

>  <experimental.result>
7.4

$$$$

Retrieve activity coefficient measured for CCCCC [pentane] + C[n+]1ccn(CCO)c1.O=S(=O)([O-])C(F)(F)C(F)(F)C(F)(F)C(F)(F)F and print it.
9.38

Retrieve activity coefficient measured for Cc1ccc(C)cc1 [1,4-dimethylbenzene] + C[n+]1ccn(CCO)c1.O=S(=O)([O-])C(F)(F)C(F)(F)C(F)(F)C(F)(F)F and print it.
11.9

Retrieve activity coefficient measured for C#CCCCCCC [1-octyne] + C[n+]1ccn(CCO)c1.O=S(=O)([O-])C(F)(F)C(F)(F)C(F)(F)C(F)(F)F and print it.
26.2

* * *

Experiment: activity coefficient (dimensionless); of the first substance listed, at infinite dilution; xn = mol fraction of the nth substance listed
Settings: 333 K; 101.33 kPa; Liquid; Chromatography; x1 = 0
Measured activity coefficient accompanies every entry in the list below.
Enter a number only.

# count of solved cases: 5
>  <compound>
Cc1ccc(C)cc1 [1,4-dimethylbenzene] + C[n+]1ccn(CCO)c1.O=S(=O)([O-])C(F)(F)C(F)(F)C(F)(F)C(F)(F)F

>  <activity coefficient>
8.78

$$$$
>  <compound>
C1CCOC1 [tetrahydrofuran] + C[n+]1ccn(CCO)c1.O=S(=O)([O-])C(F)(F)C(F)(F)C(F)(F)C(F)(F)F

>  <activity coefficient>
1.59

$$$$
>  <compound>
CCCO [propan-1-ol] + C[n+]1ccn(CCO)c1.O=S(=O)([O-])C(F)(F)C(F)(F)C(F)(F)C(F)(F)F

>  <activity coefficient>
1.81

$$$$
>  <compound>
Cc1ccccc1 [toluene] + C[n+]1ccn(CCO)c1.O=S(=O)([O-])C(F)(F)C(F)(F)C(F)(F)C(F)(F)F

>  <activity coefficient>
5.44

$$$$
>  <compound>
C#CCCCCCC [1-octyne] + C[n+]1ccn(CCO)c1.O=S(=O)([O-])C(F)(F)C(F)(F)C(F)(F)C(F)(F)F

>  <activity coefficient>
19.1

$$$$

Retrieve activity coefficient measured for C#CCCCC [1-hexyne] + C[n+]1ccn(CCO)c1.O=S(=O)([O-])C(F)(F)C(F)(F)C(F)(F)C(F)(F)F and print it.
6.97

Retrieve activity coefficient measured for C=CCCCC [hex-1-ene] + C[n+]1ccn(CCO)c1.O=S(=O)([O-])C(F)(F)C(F)(F)C(F)(F)C(F)(F)F and print it.
7.62
